Test system: KM12
protocol: NCI tumour cell line growth inhibition, 48 h
The source made the active and inactive calls. Rule as the data show it: active = GI50 up to about 1.1 µM and inactive = higher.
Hi there, I'd appreciate the recorded GI50 for every entry that follows.

Q: Please report the recorded GI50 for COC(=O)C1=COC2OC3CC1C2C(C)O3 (centres undefined) .
Result: > 100 µM (inactive)

Q: Let us now turn to CCOC(=O)CCC1(C(=O)OCC)CCCC1=O (centres undefined)
Result: > 100 µM (inactive)

Q: Also `Cc1ccc(Oc2ccc([N+](=O)[O-])cc2[N+](=O)[O-])c(C)c1` ?
Result: > 10 µM (inactive)

Q: Now consider COc1ccc(-c2c3c(n(C4OC(COC(C)=O)C(OC(C)=O)C(OC(C)=O)C4OC(C)=O)c(=S)c2C#N)CCC3)cc1 (centres undefined) .
Result: > 100 µM (inactive)

Q: Entry to check: `Cc1ccccc1C1=C/C(=C(\SS/C(C(=O)c2ccc(OCC(=O)O)c(Cl)c2Cl)=C2\C=C(c3ccccc3C)SS2)C(=O)c2ccc(OCC(=O)O)c(Cl)c2Cl)SS1`
Result: 22.3 µM (inactive)

Q: Let us now turn to `O=C1c2cccnc2S(=O)(=O)N1c1ccc([N+](=O)[O-])cc1`
Result: > 100 µM (inactive)

Q: Next: `Cc1ccc(CC[PH](=O)CCc2ccc(C)nc2)cn1`
Result: > 100 µM (inactive)

Q: Please do the same for `C=CCn1cc(C(=O)NC(=O)NCCCCCOC(=O)CCCCCCCCCCC(=O)OCCCCCNC(=O)NC(=O)c2cn(CC=C)c(=O)n(C)c2=O)c(=O)n(C)c1=O` as well.
Result: > 100 µM (inactive)

Q: And the next one, CC(=O)Oc1cc(C(F)(F)F)ccc1C(=O)OC1(C)OC(=O)c2ccc(C(F)(F)F)cc2O1 (centres undefined) ?
Result: > 100 µM (inactive)

Hello, the source for this data is ChEMBL document CHEMBL1201862, in case you need it.
